Would you mind telling me the reported EC50 of each entry?
# Tested on: DU-145
# experimental-details: Cytotoxicity against human DU145 cells by sulforhodamine B assay
# Format: functional, cell-based

Known EC50 results, listed for orientation:
CCN1C[C@]2(C)CC[C@H](OC)[C@@]34C1[C@@]1(OCO[C@@]15C[C@H](OC)[C@H]1C[C@@H]3[C@@H]5[C@H]1OC)[C@@H](OC(=O)c1cc(OC)c(OC)c(OC)c1)[C@H]24 (single isomer, unassigned): > 20 µM
CCN1C[C@]2(C)CC[C@H](OC)[C@@]34[C@@H]5C[C@H]6[C@H](O)[C@@H]5[C@@]5(C[C@@H]6OC)OCO[C@@]5(C(=O)[C@H]23)[C@@H]14 [YUNNADELPHININE]: > 20 µM
CCN1C[C@]2(C)CC[C@H](OC)[C@@]34C1[C@@]1(OCO[C@@]15C[C@H](OC)[C@H]1C[C@@H]3[C@@H]5[C@H]1OC)[C@@H](OC(=O)c1ccc(OC)cc1)[C@H]24 (single isomer, unassigned): > 20 µM

Q) Supply reported EC50 belonging to this molecule: CCN1C[C@]2(C)CC[C@H](OC)[C@@]34C1[C@@]1(OCO[C@@]15C[C@H](OC)[C@H]1C[C@@H]3[C@@H]5[C@H]1O)[C@@H](O)[C@H]24 [DELPHELINE]
A) > 20 µM

###

# System: DU-145
# experimental-details: Cytotoxicity against human DU145 cells by sulforhodamine B assay
# Assay type: functional, cell-based
measure-name: EC50 (µM)
One number for each entry, in µM.

CCN1C[C@]2(C)CC[C@H](OC)[C@@]34C1[C@@]1(OCO[C@@]15C[C@H](OC)[C@H]1C[C@@H]3[C@@H]5[C@H]1OC)[C@@H](OC(=O)c1ccc(F)cc1)[C@H]24 (single isomer, unassigned): 15.6
CCN1C[C@]2(C)CC[C@H](OC)[C@@]34C1[C@@]1(OCO[C@@]15C[C@H](OC)[C@H]1C[C@@H]3[C@@H]5[C@H]1OC)[C@@H](OC(=O)c1ccc(OC(F)(F)F)cc1)[C@H]24 (single isomer, unassigned): 20.3

Please find the next compound below.
Q) Supply reported EC50 belonging to this compound: CCN1C[C@]2(C)CC[C@H](OC)[C@@]34[C@@H]5C[C@H]6[C@H](OC)[C@@H]5[C@@]5(C[C@@H]6OC)OCO[C@@]5([C@@H](OC(=O)c5ccc(Cl)cc5)[C@H]23)[C@@H]14
A) 7.4

###

# System: DU-145
# experimental-details: Cytotoxicity against human DU145 cells by sulforhodamine B assay
# Format: functional, cell-based
pEC50: −log10 of the molar value.
measure-name: pEC50

Known pEC50 results, listed for orientation:
CCN1C[C@]2(C)CC[C@H](OC)[C@@]34C1[C@@]1(OCO[C@@]15C[C@H](OC)[C@H]1C[C@@H]3[C@@H]5[C@H]1OC)[C@@H](OC(=O)c1cc([N+](=O)[O-])cc([N+](=O)[O-])c1)[C@H]24 (single isomer, unassigned): < 4.70
CCN1C(=O)[C@]2(C)CC[C@H](OC)[C@@]34[C@@H]5C[C@H]6[C@H](OC)[C@@H]5[C@@]5(C[C@@H]6OC)OCO[C@@]5([C@@H](O)[C@@H]32)[C@@H]14: < 4.70

Please find the next molecule below.
Q) Supply reported pEC50 belonging to this molecule: CCN1C[C@]2(C)CC[C@H](OC)[C@@]34[C@@H]5C[C@H]6[C@H](OC)[C@@H]5[C@](O)(C[C@@H]6OC)[C@](O)([C@@H](OC(=O)c5cccc(C(F)(F)F)c5)[C@H]23)[C@@H]14
A) < 4.70

Values were extracted from ChEMBL document CHEMBL1933003.
